- Measured on: T1, PD-L1 antibody
- T1 construct: also called anti-PD-L1
- Procedure summary: dissociation ELISA: PD-L1 antibody dilution series on immobilised biotinylated peptide, incubation at pH 6.0
Ends that are not written are not given here.
hey, just use rule met if measured EC50 is less than 0.6 nM, otherwise rule not met

Prompt line: Determine if GGLCSTFYEPQVDICY (cysteine pairing not given here; also: biotinylated, chemically synthesized biotinylated peptide) [Peptide 29] shows EC50 strictly lower than 0.6 nM.
Response line: rule met

Prompt line: Determine if GGHCVDMVDFYQQTCQ (cysteine pairing not given here; also: biotinylated, Chemically synthesized biotinylated peptide; also called 23 (Control)) [Peptide 23] shows EC50 strictly lower than 0.6 nM.
Response line: rule not met

Prompt line: Determine if GGCHNKSGLFYHYC (cysteine pairing not given here; also: biotinylated, chemically synthesized biotinylated peptide) [Peptide 24] shows EC50 strictly lower than 0.6 nM.
Response line: rule met

Prompt line: Determine if QLFYPSTYHIID (also: biotinylated, chemically synthesized biotinylated peptide) [Peptide 20] shows EC50 strictly lower than 0.6 nM.
Response line: rule met

Prompt line: Determine if GGMCHELFYSNLNWCQ (cysteine pairing not given here; also: biotinylated, chemically synthesized biotinylated peptide) [Peptide 22] shows EC50 strictly lower than 0.6 nM.
Response line: rule met

Numbers sourced from patent US20180339043A1.
